Test: binders of probe aFSTL3 on microarray, primary screen, stem cell growth factor project, biochemical, small-molecule microarray, fluorescence 635/667 (AID 1064);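 also: measures binding of the biotinylated anti-FSTL3 antibody to printed compounds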
Conditions: higher = more signal
The threshold is inclusive: composite z-score of exactly -0.4 counts as yes; values below receive no.

Before answering, review these 3 worked examples.
[[record]]
compound = "CC(C)=CCCC(C)=CCON=C1C[C@@H](O)[C@@H](O)[C@@H]2[C@@H]3C(=O)N(c4cccc(Oc5ccccc5)c4)C(=O)[C@@H]3CC[C@@H]12"
class_label = "no"

[[record]]
compound = "CC(C)(C)N1C(=O)[C@H]2[C@H]3[C@H](O)[C@H](O)CC(=NOCc4ccccc4)[C@H]3CC[C@H]2C1=O"
class_label = "yes"

[[record]]
compound = "O=C1[C@H]2[C@H]3[C@H](O)[C@H](O)CC(=NOCc4ccccc4)[C@H]3CC[C@H]2C(=O)N1Cc1ccc2c(c1)OCO2"
class_label = "no"


Task: Please indicate if the recorded composite z-score for "CCOC(=O)CCN1C(=O)[C@H]2[C@H]3[C@H](O)[C@H](O)CC(=NNC(=O)OCc4ccccc4)[C@@H]3CC[C@H]2C1=O" meets or exceeds -0.4.
Result: yes

Task: Please indicate if the recorded composite z-score for "O=C(NN=C1C[C@@H](O)[C@@H](O)[C@@H]2[C@@H]3C(=O)N(C4CCCCC4)C(=O)[C@@H]3CC[C@H]12)OCc1ccccc1" meets or exceeds -0.4.
Result: yes

Task: Please indicate if the recorded composite z-score for "CCCCC#C[C@@H]1C=C[C@H](Oc2ccc(C(=O)OC)cc2)[C@@H](COC(=O)OCC)O1" meets or exceeds -0.4.
Result: yes
